Molecular target: T1, integrin αvβ3 (human, UniProt P06756 31-1048; P05106 27-788)
T1 construct: whole, on cells; Endogenous receptor on U87MG human glioblastoma cells in the IC50 assays; also called integrin alpha v beta 3; human integrin αvβ3
T1 sequence (P06756 31-1048, chain 1 of 2): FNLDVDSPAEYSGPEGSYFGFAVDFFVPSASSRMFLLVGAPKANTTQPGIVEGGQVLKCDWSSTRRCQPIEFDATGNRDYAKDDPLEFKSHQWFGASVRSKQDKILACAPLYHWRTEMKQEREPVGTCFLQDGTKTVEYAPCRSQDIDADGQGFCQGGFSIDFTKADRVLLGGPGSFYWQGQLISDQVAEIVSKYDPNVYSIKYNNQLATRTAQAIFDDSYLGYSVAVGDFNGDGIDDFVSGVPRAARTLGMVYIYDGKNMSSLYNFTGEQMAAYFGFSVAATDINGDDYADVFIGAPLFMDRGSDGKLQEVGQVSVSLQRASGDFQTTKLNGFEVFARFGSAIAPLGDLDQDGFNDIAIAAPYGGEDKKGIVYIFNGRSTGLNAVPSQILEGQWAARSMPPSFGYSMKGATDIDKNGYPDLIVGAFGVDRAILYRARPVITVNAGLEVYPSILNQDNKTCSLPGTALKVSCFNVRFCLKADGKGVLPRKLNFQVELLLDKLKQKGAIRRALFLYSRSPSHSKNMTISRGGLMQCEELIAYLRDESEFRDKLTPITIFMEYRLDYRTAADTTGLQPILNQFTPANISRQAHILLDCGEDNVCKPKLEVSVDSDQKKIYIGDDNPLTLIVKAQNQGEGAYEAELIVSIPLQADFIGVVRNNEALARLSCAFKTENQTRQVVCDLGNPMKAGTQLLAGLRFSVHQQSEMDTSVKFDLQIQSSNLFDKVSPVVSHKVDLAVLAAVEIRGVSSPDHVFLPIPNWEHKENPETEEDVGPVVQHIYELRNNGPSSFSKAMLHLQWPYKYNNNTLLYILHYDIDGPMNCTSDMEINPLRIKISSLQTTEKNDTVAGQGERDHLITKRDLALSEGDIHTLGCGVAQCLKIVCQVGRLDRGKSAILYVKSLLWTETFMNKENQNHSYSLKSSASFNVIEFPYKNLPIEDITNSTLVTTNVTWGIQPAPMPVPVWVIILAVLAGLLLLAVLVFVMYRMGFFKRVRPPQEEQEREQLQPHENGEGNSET
T1 sequence (P05106 27-788, chain 2 of 2): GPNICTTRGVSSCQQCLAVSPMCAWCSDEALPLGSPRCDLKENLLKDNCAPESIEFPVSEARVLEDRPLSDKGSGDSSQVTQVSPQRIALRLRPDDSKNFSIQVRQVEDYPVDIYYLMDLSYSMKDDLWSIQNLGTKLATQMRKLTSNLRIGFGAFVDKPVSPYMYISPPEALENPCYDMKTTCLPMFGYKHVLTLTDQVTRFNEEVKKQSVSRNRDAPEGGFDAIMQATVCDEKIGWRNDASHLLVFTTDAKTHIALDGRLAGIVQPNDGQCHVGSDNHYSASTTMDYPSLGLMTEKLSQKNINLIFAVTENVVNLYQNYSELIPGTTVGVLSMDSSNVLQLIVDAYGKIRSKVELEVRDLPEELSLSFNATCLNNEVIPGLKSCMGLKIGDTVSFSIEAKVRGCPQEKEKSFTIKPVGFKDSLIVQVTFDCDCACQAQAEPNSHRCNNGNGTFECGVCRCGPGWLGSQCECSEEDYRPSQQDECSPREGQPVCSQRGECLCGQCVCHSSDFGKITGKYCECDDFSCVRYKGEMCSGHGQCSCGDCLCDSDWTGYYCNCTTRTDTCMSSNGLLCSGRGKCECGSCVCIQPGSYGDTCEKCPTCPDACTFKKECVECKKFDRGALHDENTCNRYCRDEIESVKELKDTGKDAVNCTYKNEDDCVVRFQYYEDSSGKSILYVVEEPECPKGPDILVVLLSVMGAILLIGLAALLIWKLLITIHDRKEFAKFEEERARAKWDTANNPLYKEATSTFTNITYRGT
Experiment: competitive displacement of ^125I-echistatin on U87MG cells
readoutName: IC50 (nM)

FB-NH-Glu-BBN(7-14)-c(RGDyK) (FB-BBN-RGD) (4-fluorobenzoyl (FB) on the Glu amino group; Aca between Glu and Gln; C-terminal amide (Met-NH2); cyclic (cyclo); D-Tyr at position 4; Lys joined to one carboxylate of the Glu linker, non-radioactive FB form used in the IC50 assays; also called ^18F-FB-BBN-RGD) peptide 1: RGDYK peptide 2: EQWAVGHLM; 282
NH2-Glu-BBN(7-14)-c(RGDyK) (BBN-RGD) (free amino group on Glu; Aca between Glu and Gln; C-terminal amide (Met-NH2); cyclic (cyclo); D-Tyr at position 4; Lys joined to one carboxylate of the Glu linker, also called heterodimer BBN-RGD; BBN-RGD heterodimeric construct) peptide 1: RGDYK peptide 2: EQWAVGHLM; 428
